# credit: PubChem BioAssay (EPA / NIEHS)

read-out: Macrophage colony-stimulating factor (MCSF), CSF1 (gene 1435); assay: BSK_CASM3C_MCSF: BioMAP Diversity Plus: CASM3C Assay for Macrophage colony-stimulating factor (MCSF) Biomarker Activity (AID 2283044); details: primary human coronary artery smooth muscle cells; actives raise or lower the signal;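 further: M-CSF protein amount quantified by ELISA after 24 h exposure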
Activity calls are given as the source filed them. How the source made its calls: active means hit-call score of the fitted dose curve at least 0.9, where 1 is the maximum; inactive means score below 0.9.
reported-endpoint: outcome

CC(C)NC(=O)N1CC(=O)N(c2cc(Cl)cc(Cl)c2)C1=O	inactive
CCNC(=O)NC(=O)C(C#N)=NOC	inactive
CSC(=O)c1c(C(F)F)nc(C(F)(F)F)c(C(=O)SC)c1CC(C)C	inactive

* * *

read-out: Nuclear factor erythroid 2-related factor 2 (Homo sapiens) (UniProt Q16236); test: LTEA_HepaRG_NFE2L2: Life Technologies and Expression Analysis (LTEA) Assay for Nuclear factor erythroid 2-related factor 2 (NFE2L2) Transcription Factor using HepaRG (AID 2283527); conditions: mRNA level, 48 h; actives raise or lower the signal
Sequence (Q16236 whole entry, looked up): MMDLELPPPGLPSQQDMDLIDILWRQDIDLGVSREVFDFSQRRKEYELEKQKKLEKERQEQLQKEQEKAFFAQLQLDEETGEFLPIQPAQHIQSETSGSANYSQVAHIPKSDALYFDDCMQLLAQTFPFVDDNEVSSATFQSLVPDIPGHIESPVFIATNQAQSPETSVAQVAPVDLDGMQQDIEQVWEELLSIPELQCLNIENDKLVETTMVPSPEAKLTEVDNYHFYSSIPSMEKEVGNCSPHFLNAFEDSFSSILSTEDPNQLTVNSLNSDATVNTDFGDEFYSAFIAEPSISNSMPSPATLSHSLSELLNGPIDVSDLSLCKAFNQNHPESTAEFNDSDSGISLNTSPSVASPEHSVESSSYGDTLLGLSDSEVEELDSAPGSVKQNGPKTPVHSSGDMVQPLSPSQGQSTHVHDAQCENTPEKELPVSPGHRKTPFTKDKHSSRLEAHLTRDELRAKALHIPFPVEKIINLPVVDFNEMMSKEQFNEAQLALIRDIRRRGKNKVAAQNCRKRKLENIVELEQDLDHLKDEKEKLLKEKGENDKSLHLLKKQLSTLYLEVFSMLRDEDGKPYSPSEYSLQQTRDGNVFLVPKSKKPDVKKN
Active and inactive are the calls of the source. How the source made its calls: active means hit-call score of the fitted dose curve at least 0.9, where 1 is the maximum; inactive means score below 0.9.
A correct response names exactly one class from 1.0 = active, 0.0 = inactive

COC(=O)N(C(=O)N1CO[C@@]2(C(=O)OC)Cc3cc(Cl)ccc3C2=N1)c1ccc(OC(F)(F)F)cc1	1.0
Cc1ccc(N=CN(C)C=Nc2ccc(C)cc2C)c(C)c1	0.0

Task: Entry CCN(CC)C(=O)C(C)Oc1cccc2ccccc12 (stereo not drawn) : call = ?
Output: 0.0

* * *

Read-out: CYP2E1 (gene 1571)
Test: LTEA_HepaRG_CYP2E1: Life Technologies and Expression Analysis (LTEA) Assay for CYP2E1 using HepaRG (AID 2283485)
Conditions: mRNA level, 48 h; actives raise or lower the signal
Method: LTEA_HepaRG is a cell based, multiplexed-readout assay that uses HepaRG, a human liver cell line, with measurements taken at 48 hours after chemical dosing on a 96-well plate.LTEA_HepaRG_CYP2E1 is one of 102 assay component(s) measured in the LTEA HepaRG cell culture assay. It is a marker of NR mediated metabolism.Data from the assay component LTEA_HepaRG_CYP2E1 was analyzed into 1 endpoint. […]
The source made the active and inactive calls. How the source made its calls: active means hit-call score of the fitted dose curve at least 0.9, where 1 is the maximum; inactive means score below 0.9.
Parameter call: string, one of active, inactive

CCOc1nc(F)cc2nc(S(=O)(=O)Nc3c(Cl)cccc3Cl)nn12	active
COP(=S)(OC)SCn1nnc2ccccc2c1=O	inactive
N#Cc1c(Cl)cccc1Cl	inactive
CN/C(=N\[N+](=O)[O-])NCc1cnc(Cl)s1	active

Task: Call for entry CCSC(=O)N1CCCCCC1 :
Output: inactive

Task: What is the recorded call for this compound in the test? CS(=O)(=O)c1ccc(C(=O)C2C(=O)CCCC2=O)c([N+](=O)[O-])c1
Output: inactive

Task: Identify the outcome logged in this assay for the compound shown: O=C1C2CC=CCC2C(=O)N1SC(Cl)(Cl)Cl (stereo not drawn)
Output: inactive

Task: Give the logged outcome of this assay for the following compound: COc1ccc(-c2ccccc2)cc1NNC(=O)OC(C)C
Output: inactive

* * *

read-out: Interleukin-8 (IL8), CXCL8 (gene 3576); assay: BSK_3C_IL8: BioMAP Diversity Plus: 3C Assay for Interleukin-8 (IL8) Biomarker Activity (AID 2283020); conditions: primary human endothelial cells (HUVEC); actives raise or lower the signal
Activity calls are given as the source filed them. Rule for the calls: active = hit-call score of the fitted dose curve at least 0.9, where 1 is the maximum; inactive = score below 0.9.
Return exactly one item of active, inactive

Example cases with answers are listed next.
CNC(=O)N(C)c1nnc(C(C)(C)C)s1	inactive
CCOP(=S)(OCC)Oc1nc(Cl)n(C(C)C)n1	inactive

Task: For this compound, state the assay outcome: Cc1ccc(N=CN(C)C=Nc2ccc(C)cc2C)c(C)c1
Output: active

Task: Look up the recorded call for COCc1cnc(C2=NC(C)(C(C)C)C(=O)N2)c(C(=O)O)c1 (configuration not stated) in this test.
Output: inactive

Task: # fetch the recorded call for CO/N=C(/C1=NOCCO1)c1ccccc1Oc1ncnc(Oc2ccccc2Cl)c1F here
Output: active

Task: In this assay, the call recorded for N#CN=C1SCCN1Cc1ccc(Cl)nc1 was what?
Output: inactive

Task: Tell me the recorded outcome of this test for CC(C)C1(C)N=C(c2ncccc2C(=O)O)NC1=O (configuration not stated) .
Output: inactive

* * *

Target: Transcriptional activator Myb (Homo sapiens)
Assay: ATG_Myb_CIS: Attagene CIS-FACTORIAL HepG2 Assay for human Myeloblastosis (Myb) Proto-Oncogene Transcription Factor (AID 2282986)
Conditions: HepG2 Attagene CIS-FACTORIAL Myb reporter transcription; actives raise or lower the signal
Description: ATG_CIS is a cell-based, multiplexed-readout assay that uses HepG2, a human liver cell line, with measurements taken at 24 hours after chemical dosing in a 24-well plate.ATG_Myb_CIS is one of 52 assay component(s) measured or calculated from the ATG_CIS assay. […] This assay endpoint, ATG_Myb_CIS, was analyzed with bidirectional fitting relative to DMSO as the negative control and baseline of activity. […]
Active and inactive are the calls of the source. How the source made its calls: active means hit-call score of the fitted dose curve at least 0.9, where 1 is the maximum; inactive means score below 0.9.
Classes to choose from: 1.0 for active, 0.0 for inactive

Example results:
COc1cc(Cl)c(OC)cc1Cl	0.0
CCSC(=O)N1CCCCCC1	0.0
CNC(=O)N(C)c1nnc(C(C)(C)C)s1	0.0
COc1ccc(-c2ccccc2)cc1NNC(=O)OC(C)C	0.0

Task: Field: outcome | Entry: CS(=O)(=O)c1ccc(C(=O)C2C(=O)CCCC2=O)c([N+](=O)[O-])c1
Output: 0.0

Task: Hello, I am checking results. What call was entered for CNC(=O)Oc1cccc2ccccc12 ?
Output: 0.0

Task: Fill in: this test's call for C=CCOC(=O)C(C)(C)OC(=O)c1cc(-n2c(=O)cc(C(F)(F)F)n(C)c2=O)ccc1Cl is ___
Output: 0.0

Task: Tell me the assay call for CC(C)N1C(=O)c2ccccc2NS1(=O)=O please.
Output: 0.0

Task: For COCC(=O)N(c1c(C)cccc1C)C(C)C(=O)OC (stereo unspecified) , what call appears in the results of this test?
Output: 0.0

Task: Short answer needed: outcome of this test for CSC(=O)c1c(C(F)F)nc(C(F)(F)F)c(C(=O)SC)c1CC(C)C ?
Output: 0.0

* * *

Molecular target: X-box-binding protein 1 (Homo sapiens) (UniProt P17861)
Sequence (P17861 whole entry, looked up): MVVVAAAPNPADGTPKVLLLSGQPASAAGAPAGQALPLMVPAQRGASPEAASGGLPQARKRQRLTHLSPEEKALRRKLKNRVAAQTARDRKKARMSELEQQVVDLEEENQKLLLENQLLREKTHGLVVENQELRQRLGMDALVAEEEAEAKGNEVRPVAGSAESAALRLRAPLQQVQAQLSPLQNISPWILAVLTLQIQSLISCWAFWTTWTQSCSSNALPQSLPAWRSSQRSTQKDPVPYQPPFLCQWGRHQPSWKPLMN
Experiment: ATG_Xbp1_CIS: Attagene CIS-FACTORIAL HepG2 Assay for human X-box Binding Protein 1 (XBP1) (AID 2282972)
Conditions: HepG2 XBP1 cis-element reporter, Attagene multiplex; actives raise or lower the signal
Protocol: ATG_CIS is a cell-based, multiplexed-readout assay that uses HepG2, a human liver cell line, with measurements taken at 24 hours after chemical dosing in a 24-well plate.ATG_Xbp1_CIS is one of 52 assay component(s) measured or calculated from the ATG_CIS assay. […] This assay endpoint, ATG_Xbp1_CIS, was analyzed with bidirectional fitting relative to DMSO as the negative control and baseline of activity. […]
Calls of active or inactive are those of the source. The calls were made as follows: active = hit-call score of the fitted dose curve at least 0.9, where 1 is the maximum; inactive = score below 0.9.
Give your call using only these classes: active, inactive

COc1ccc(-c2ccccc2)cc1NNC(=O)OC(C)C	active
CCCC(=NOCC)C1=C(O)CC(CC(C)SCC)CC1=O (stereo not drawn)	inactive
Clc1cccc(C(Cl)(Cl)Cl)n1	inactive
Cc1ccc(N=CN(C)C=Nc2ccc(C)cc2C)c(C)c1	inactive
CNC(=O)Oc1cccc2ccccc12	inactive
CC(C)(C)C(=O)C(Oc1ccc(Cl)cc1)n1cncn1 (stereo not drawn)	inactive

Task: Please state the recorded outcome for this molecule: CCCCC(C#N)(Cn1cncn1)c1ccc(Cl)cc1 (stereo not drawn)
Output: inactive

Task: Entry COP(=O)(OC)O/C(C)=C/C(=O)N(C)C : call = ?
Output: inactive

* * *

target: human Peripheral-type Benzodiazepine Receptor (PBR), TSPO (gene 706); assay: NVS_MP_hPBR: NovaScreen (NVS) Membrane Protein Assay for human Peripheral-type Benzodiazepine Receptor (PBR) (AID 2283331);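 further: hits reduce radioligand binding relative to DMSO baseline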
Results filed as inconclusive are left out. Calls of active or inactive are those of the source. How the source made its calls: active means hit-call score of the fitted dose curve at least 0.9, where 1 is the maximum; inconclusive means response in the unintended direction; inactive means score below 0.9.
reported-endpoint: AC50

Before answering, review these 4 worked examples.
N#Cc1c[nH]cc1-c1cccc2c1OC(F)(F)O2	inactive
Clc1nc(Cl)nc(Nc2ccccc2Cl)n1	14.9 µM (active)
COc1ccc(-c2ccccc2)cc1NNC(=O)OC(C)C	0.149 µM (active)
Cc1c(COC(=O)[C@@H]2[C@H](/C=C(\Cl)C(F)(F)F)C2(C)C)cccc1-c1ccccc1	inactive

Moving on to the next compound.
AC50 recorded for this compound, O=C(Nc1ccccc1-c1ccc(Cl)cc1)c1cccnc1Cl , is inactive

* * *

read-out: Alpha-fetoprotein (AFP) gene, AFP (gene 174); experiment: LTEA_HepaRG_AFP: Life Technologies and Expression Analysis (LTEA) Assay for Alpha-fetoprotein (AFP) gene using HepaRG (AID 2283472); settings: mRNA level, 48 h; actives raise or lower the signal
The source made the active and inactive calls. Rule for the calls: active = hit-call score of the fitted dose curve at least 0.9, where 1 is the maximum; inactive = score below 0.9.
Give your call using only these classes: yes for active, no for inactive

Sample answers from the record:
CC(C)N1C(=O)N(c2ccccc2)CSC1=NC(C)(C)C	yes
COC(=O)NS(=O)(=O)c1ccc(N)cc1	no
Cc1cc(C)nc(Nc2ccccc2)n1	no
COC(=O)N(C(=O)N1CO[C@@]2(C(=O)OC)Cc3cc(Cl)ccc3C2=N1)c1ccc(OC(F)(F)F)cc1	yes
OC(c1ccc(Cl)cc1)(c1ccc(Cl)cc1)C(Cl)(Cl)Cl	no
O=C(Nc1ccccc1-c1ccc(Cl)cc1)c1cccnc1Cl	yes
CS(=O)(=O)c1cc(C(F)(F)F)ccc1C(=O)c1cnoc1C1CC1	no
CN/C(=N\[N+](=O)[O-])NCc1cnc(Cl)s1	yes

Task: For CCNP(=S)(OC)O/C(C)=C/C(=O)OC(C)C (stereo not given) , what call appears in the results of this test?
Output: no

Task: Please share the test call associated with CC(C)(C)C(=O)C(Oc1ccc(Cl)cc1)n1cncn1 (stereo not given) .
Output: no

Task: Hi, sorry to bother you, what did the test record for O=C(O)c1c(Cl)ccc2cc(Cl)cnc12 ?
Output: no

Task: Hi, do you know how Cc1c(COC(=O)[C@@H]2[C@H](/C=C(\Cl)C(F)(F)F)C2(C)C)cccc1-c1ccccc1 came out in this test?
Output: yes

Task: State the result this test recorded for CCCC(=NOCC)C1=C(O)CC(CC(C)SCC)CC1=O (stereo not given) .
Output: no

Task: Please let me know the test result on file for CC1(C)C(C=C(Cl)Cl)C1C(=O)OC(C#N)c1cccc(Oc2ccccc2)c1 (stereo not given) .
Output: no

Task: Can you look up the reported call for CCNC(=O)NC(=O)C(C#N)=NOC for me?
Output: yes

Task: Identify the outcome logged in this assay for the compound shown: CCOc1nc(C(Cl)(Cl)Cl)ns1
Output: yes

Task: Could you please tell me the result logged for COCC(=O)N(c1c(C)cccc1C)C(C)C(=O)OC (stereo not given) in this assay?
Output: no

Task: Please share the test call associated with C=C(C)CN(CC)c1c([N+](=O)[O-])cc(C(F)(F)F)cc1[N+](=O)[O-] .
Output: no

Task: In this assay, the call recorded for O=P(O)(O)CCCl was what?
Output: no

Task: Hey, what did the test say about CCN(CC)C(=O)C(C)Oc1cccc2ccccc12 (stereo not given) ?
Output: yes
